B1: TPR t1 (parent)
chain: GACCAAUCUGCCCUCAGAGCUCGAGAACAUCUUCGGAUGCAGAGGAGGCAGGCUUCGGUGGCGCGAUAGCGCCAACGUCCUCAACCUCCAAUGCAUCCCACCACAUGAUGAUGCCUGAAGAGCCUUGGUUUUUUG

- Variants of: B1
- Protocol text: polymerase ribozyme fitness, log enrichment relative to wild type (log ratio); higher = more active; in vitro selection for triplet polymerase activity
Experimental endpoint: polymerase ribozyme fitness (log ratio)
One number for each entry.

Known polymerase ribozyme fitness (log ratio) results, listed for orientation:
INSERT INTO results (variant_id, experimental_endpoint, reported_value) VALUES
  ('C12G C15G G47C C82G', 'polymerase ribozyme fitness (log ratio)', -4.81),
  ('C28G G48A C72U', 'polymerase ribozyme fitness (log ratio)', -3.41),
  ('C28G G110A G128U', 'polymerase ribozyme fitness (log ratio)', -2.89);

Hey, quick one: what's polymerase ribozyme fitness (log ratio) for each of these?
1. C20U G77A
2. U7C C11A G45C G58A A121C
3. C114A A119U
4. C101G C102U G117A
5. A27C A43G
6. C79U A91U

Reply |
-1.35
0.57
-3.28
-7.15
-5.95
-2.48

// for each variant in input: emit polymerase ribozyme fitness (log ratio)
1. U7C U9G A26G C72A
2. C76A C115U
3. U96G G110U G120U U132C
4. C4G U9A C56G U112A G117A G120C
5. C70U A108U
6. U32G G39A U106C
7. C124U G127A G135U
8. A27G U106A

Reply |
[-1.08, -2.9, -4.08, -6.24, -5.38, -4.98, -0.796, -2.32]

Report polymerase ribozyme fitness (log ratio) for every entry below.
1. A90G U126A
2. A5U G61U C124A

Reply |
[-1.39, 1.19]

// input: 3 variants below; output: polymerase ribozyme fitness (log ratio) for each
1. C11G C12G C79G C94U G117A U131A
2. C4U C12A U59C A66C
3. C4G A26G U78C C99U C114G U132C

Reply |
1: -2.71; 2: -2.92; 3: -5.4

Values from the RNAGym collection of RNA variant scans (doi:10.1073/pnas.2313332121)
